Data provenance: patent US20220267347A1

# protocol.description: Pharmacokinetic evaluation after intravenous or gavage administration to rats
# Format: in vivo, SD rats
# reported.conditions: Sprague-Dawley (SD), rat, plasma, po, i.g group, 5 mg/kg
# Protocol: The pharmacokinetics of the compound of the invention in rats and/or dogs were evaluated herein, the animal information was listed in Table B. The compound of the present invention was administered to the animal subjects in the form of 10% DMSO+10% Kolliphor HS15+78% Saline+2% (2% HCl) solution or 78% Saline+2% (2% HCl)+20% PEG400 solution. Before administration, the animals were fasted for 12 hours but water was freely allowed. […]
observed.property: Tmax (h)

>>> print(df.to_string())
                         structure_notation  reported_measurement
0  CONC(=O)Nc1ccc(-c2sc3c(c2CN(C)C)c(=O)n(-c2ccc(-n4nccn4)cn2)c(=O)n3Cc2c(F)cccc2F)cc1                 0.667
1  CONC(=O)Nc1ccc(-c2sc3c(c2CN(C)C)c(=O)n(-c2ccc(-n4cccn4)nc2)c(=O)n3Cc2c(F)cccc2F)cc1                  2.33

---

This listing pairs compounds with measured AUC(0-inf).
# protocol.description: Pharmacokinetic evaluation after intravenous or gavage administration to rats
# Format: in vivo, SD rats
# reported.conditions: Sprague-Dawley (SD), rat, plasma, iv, i.v group, 1 mg/kg
observed.property: AUC(0-inf)

>>> df
                         structure_notation  reported_measurement
0  CONC(=O)Nc1ccc(-c2sc3c(c2CN(C)C)c(=O)n(-c2ccc(-n4cccn4)nc2)c(=O)n3Cc2c(F)cccc2F)cc1           184 ng·h/mL
1  CONC(=O)Nc1ccc(-c2sc3c(c2CN(C)C)c(=O)n(-c2ccc(-n4nccn4)cn2)c(=O)n3Cc2c(F)cccc2F)cc1           266 ng·h/mL

---

This listing pairs compounds with measured Cmax.
# protocol.description: Pharmacokinetic evaluation after intravenous or gavage administration to dogs
# Type: in vivo, Beagle dogs
# reported.conditions: beagle, dog, plasma, intravenous, i.v group, 2.5 mg/kg
observed.property: Cmax (ng/mL)

                         structure_notation  reported_measurement
0  CONC(=O)Nc1ccc(-c2sc3c(c2CN(C)C)c(=O)n(-c2ccc(-n4cccn4)nc2)c(=O)n3Cc2c(F)cccc2F)cc1                   671
1  CONC(=O)Nc1ccc(-c2sc3c(c2CN(C)C)c(=O)n(-c2ccc(-n4nccn4)cn2)c(=O)n3Cc2c(F)cccc2F)cc1                   720

---

# protocol.description: Pharmacokinetic evaluation after intravenous or gavage administration to rats
# Type: in vivo, SD rats
# reported.conditions: Sprague-Dawley (SD), rat, plasma, po, i.g group, 5 mg/kg
This listing pairs compounds with measured Cmax.
observed.property: Cmax

In [3]: df
Out[3]:
                         structure_notation  observed_property  reported_measurement
0  CONC(=O)Nc1ccc(-c2sc3c(c2CN(C)C)c(=O)n(-c2ccc(-n4nccn4)cn2)c(=O)n3Cc2c(F)cccc2F)cc1               Cmax             177 ng/mL
1  CONC(=O)Nc1ccc(-c2sc3c(c2CN(C)C)c(=O)n(-c2ccc(-n4cccn4)nc2)c(=O)n3Cc2c(F)cccc2F)cc1               Cmax             164 ng/mL
